All values here come from patent US12215106B2.

Assay: Plasma pharmacokinetics and brain distribution after single IV, IP and oral administration
Assay type: in vivo
Details: male, C57BL/6, mouse, in vivo, po, 10 mg/kg, Mean plasma conc.
Counter-ions that a name gives are not always drawn.
measurement-name: concentration at 6 h (ng/mL)
Expressed in ng/mL, but write only the number.

Take a look at these entries with their results.
molecule	measurement-name	number
[2H]C([2H])([2H])Oc1ccc(Nc2nc(-c3c(C)nc4ccccn34)cs2)cc1 [Compound 15, hydrochloride]	concentration at 6 h	11.1
Cc1nc2ccccn2c1-c1csc(Nc2ccc3c(c2)OC(F)(F)O3)n1 [Compound 16, hydrochloride]	concentration at 6 h	2.5

Okay, now this molecule:
// returns reported concentration at 6 h for input [2H]C1([2H])Oc2ccc(Nc3nc(-c4c(C)nc5ccccn45)cs3)cc2O1 [Compound 17, hydrochloride] 45.5

====

# Lookup of reported concentration at 24 h keyed by entry
Assay: Plasma pharmacokinetics and brain distribution after single IV, IP and oral administration
Assay type: in vivo
Settings: male, C57BL/6, mouse, in vivo, ip, 10 mg/kg, Mean plasma conc.
Structures can show the parent of a compound that is named as a salt.
Expressed in ng/mL, but write only the number.

Take a look at these entries with their results.
compound	measurement-name	number
Cc1nc2ccccn2c1-c1csc(Nc2ccc3c(c2)OC(F)(F)O3)n1 [Compound 16, hydrochloride]	concentration at 24 h	0
[2H]C1([2H])Oc2ccc(Nc3nc(-c4c(C)nc5ccccn45)cs3)cc2O1 [Compound 17, hydrochloride]	concentration at 24 h	0

Okay, now this compound:
// returns reported concentration at 24 h for input [2H]C([2H])([2H])Oc1ccc(Nc2nc(-c3c(C)nc4ccccn34)cs2)cc1 [Compound 15, hydrochloride] 0

====

Assay: Bi-directional Caco-2 transport assay
Format: in vitro ADME
Conditions: human, Caco-2; 5 μM, HBSS pH 7.4, basal to apical; read-out: Papp (B-A)
measurement-name: Papp B→A at 90 min, 5 μM
I'd appreciate it if you included the unit after the number.

// returns reported Papp B→A at 90 min, 5 μM for input CN(C)C(=O)C(CCN1CCC(O)(c2ccc(Cl)cc2)CC1)(c1ccccc1)c1ccccc1 [Loperamide, reference compound] 8.4 ×10⁻⁶ cm/s

====

Experiment: Plasma pharmacokinetics and brain distribution after single IV, IP and oral administration
Type: in vivo
Details: male, C57BL/6, mouse, plasma, po, 10 mg/kg, summary data; read-out: Oral bioavailability
Where a name gives a salt, the structure may show the parent alone.
measurement-name: bioavailability (%)
Expressed in %, but write only the number.

molecule	unit	number
Cc1nc2ccccn2c1-c1csc(Nc2ccc3c(c2)OC(F)(F)O3)n1 [Compound 16, hydrochloride]	%	20

Okay, now this molecule:
// returns reported bioavailability for input [2H]C([2H])([2H])Oc1ccc(Nc2nc(-c3c(C)nc4ccccn34)cs2)cc1 [Compound 15, hydrochloride] 64

====

Assay: Plasma pharmacokinetics and brain distribution after single IV, IP and oral administration
Assay type: in vivo
Conditions: male, C57BL/6, mouse; plasma, IP 10 mg/kg
Counter-ions that a name gives are not always drawn.
measurement-name: AUC(0-inf) (ng·h/mL)
Expressed in ng·h/mL, but write only the number.

// returns reported AUC(0-inf) for input [2H]C1([2H])Oc2ccc(Nc3nc(-c4c(C)nc5ccccn45)cs3)cc2O1 [Compound 17, hydrochloride] 786

====

# Lookup of reported concentration at 3 h keyed by entry
Assay: Plasma pharmacokinetics and brain distribution after single IV, IP and oral administration
Format: in vivo
Details: male, C57BL/6, mouse, in vivo, po, 10 mg/kg, Mean plasma conc.
Description: The objective of this study was to investigate the plasma pharmacokinetics and brain distribution of Compound (14 in male C57BL/6 mice following a single intravenous, intraperitoneal and oral administration. A group of sixty-three male mice were divided into three groups (Group 1: 2 mg/kg/IV; Group 2: 10 mg/kg/IP and Group 3: 10 mg/kg/PO) with each group comprising of twenty-one mice. […]
Structures can show the parent of a compound that is named as a salt.
Expressed in ng/mL, but write only the number.

Take a look at these entries with their results.
molecule	measurement-name	number
[2H]C([2H])([2H])Oc1ccc(Nc2nc(-c3c(C)nc4ccccn34)cs2)cc1 [Compound 15, hydrochloride]	concentration at 3 h	93.7
[2H]C1([2H])Oc2ccc(Nc3nc(-c4c(C)nc5ccccn45)cs3)cc2O1 [Compound 17, hydrochloride]	concentration at 3 h	63.5

Okay, now this molecule:
// returns reported concentration at 3 h for input Cc1nc2ccccn2c1-c1csc(Nc2ccc3c(c2)OC(F)(F)O3)n1 [Compound 16, hydrochloride] 3.35
